Quick list: Binding affinity (RU) per entry.
# ASSAY_SYSTEM: acetylcholine receptor
# PROTOCOL_TEXT: SPR, AchR immobilized on CM5 chip, peptide at 10 uM
Reply with just the number (in RU).

These recorded examples may help you get a feel for the data.
binder="RRFANK [6mer-1-842]" reported_endpoint="Binding affinity (RU)" recorded_number=11
binder="RRLSRR [6mer-2-349]" reported_endpoint="Binding affinity (RU)" recorded_number=137
binder="KQQCKR [6mer-2-376]" reported_endpoint="Binding affinity (RU)" recorded_number=141
binder="KSRQKK [6mer-2-345]" reported_endpoint="Binding affinity (RU)" recorded_number=148
binder="KRCNGR [6mer-1-853]" reported_endpoint="Binding affinity (RU)" recorded_number=30

Just so you know, measured Binding affinity (RU) for RKIDFK [6mer-1-816] came out at 14

Consider KIADK [5mer-1022] . Its measured Binding affinity (RU) is 29

Value of measured Binding affinity (RU) for the entry KAHMR [5mer-1047] : 23

The binder listed as RLQTKK [6mer-2-353] shows Binding affinity (RU) equal to 137

Entry RMTVR [5mer-1003] — recorded Binding affinity (RU) = 11

Lookup result for RKCNAR [6mer-1-810] ; measured Binding affinity (RU): 12
